// values below are reported RAT MICROSOMAL STABILITY (% REMAINING AFTER 30 MINUTES)
assay_notes: In vitro rat microsomal stability assay
Format: in vitro ADME, rat (Sprague-Dawley)
condition_summary: Sprague-Dawley, rat, 0.5 h, 0.5 μM, pH 7.4

# count of solved cases: 3
1) OC1CC(c2ccc(C(F)(F)F)cc2)(C(O)c2ccccn2)C1 (centres unmarked) [Example 200] :: >85%
2) OC(c1ccccn1)C1(C2=CCC(F)(F)CC2)CCC1 (centres unmarked) [Example 260] :: <0.01%
3) Cc1ccccc1C1(C(O)c2ccccn2)CCCO1 (centres unmarked) [Example 90] :: <0.01%

Quick note, RAT MICROSOMAL STABILITY (% REMAINING AFTER 30 MINUTES) for OC(c1ccccn1)C1(c2ccc(F)c(Cl)c2)CC2(C1)OCCO2 (centres unmarked) [Example 255] landed at <0.01%

OC(c1ccccn1)C1(c2ccc(C(F)(F)F)cn2)CC(F)(F)C1 (centres unmarked) [Example 137] has a reported RAT MICROSOMAL STABILITY (% REMAINING AFTER 30 MINUTES) of >85%
